- Measurement Notes: physchem
- Type: physicochemical
- Measurement Context: pH 8.9, aqueous buffer; pH about 8.9; read-out: solubility
Endpoint: solubility

### Prompt # get_value(readout='solubility', item= COc1cc(N2CCN(C3CCN(c4ccc(F)c5cccnc45)CC3)CC2)c2ncccc2c1 )
### Response ~0.036 µg/mL

---

- Measurement Notes: physchem
- Type: physicochemical
- Measurement Context: pH 6, aqueous buffer; pH levels greater than about 6; read-out: solubility
Endpoint: solubility

### Prompt What value of solubility has been reported for the following molecule? COc1cc(N2CCN(C3CCN(c4ccc(F)c5cccnc45)CC3)CC2)c2ncccc2c1
### Response < 1 µg/mL
